Condition label: buffer; pH 7.4; 200.0 µM
Assay readout: solubility kinetic (µg/mL)
Write the answer as a number in µg/mL, unit excluded.

Solved cases below.
Cc1noc(C)c1COc1ccc2ccc(=O)oc2c1 ... 11.5
O=C(Cc1c(F)cccc1Cl)Nc1ccccn1 ... 30.2
Nc1nc(NCc2ccco2)nc(Nc2ccccc2)c1[N+](=O)[O-] ... 0.4
Cc1cccc(NC(=O)c2nc[nH]c2C(=O)Nc2cccc(C)c2)c1 ... 0.2
O=S(=O)(NCc1c(Cl)cccc1Oc1ccccc1)c1ccccc1 ... 3

Please look at the following compound next.
solubility kinetic recorded for this compound, COc1ccc(-c2noc(CCC(=O)NCCc3ccccc3)n2)cc1 , is 5.4
